Biological target: human MGAT2 (Homo sapiens (Human), UniProt Q3SYC2)
Sequence (Q3SYC2 whole entry): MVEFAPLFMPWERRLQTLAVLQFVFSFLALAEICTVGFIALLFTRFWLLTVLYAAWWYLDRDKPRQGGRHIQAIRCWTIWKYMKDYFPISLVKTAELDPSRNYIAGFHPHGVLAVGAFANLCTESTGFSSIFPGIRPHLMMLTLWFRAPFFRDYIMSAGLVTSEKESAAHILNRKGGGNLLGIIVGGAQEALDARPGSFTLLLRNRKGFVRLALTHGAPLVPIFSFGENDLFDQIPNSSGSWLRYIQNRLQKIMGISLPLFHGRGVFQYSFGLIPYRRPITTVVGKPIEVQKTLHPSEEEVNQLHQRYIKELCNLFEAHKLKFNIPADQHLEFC
Assay: Test Example 1: Test of MGAT2 inhibitory action (human MGAT2 enzyme fraction from Sf9 cells, free CoA detected by CPM fluorescence)
Assay type: biochemical
Conditions: human MGAT2 enzyme fraction expressed in Sf9 insect cells, 0.5 μg/ml, 2-monooleoyl glycerol 0.78 μM, oleoyl-CoA 5.3 μM, room temperature 20 min, read-out: Activity Value [nM] (IC50, concentration at which 50% of produced free CoA was inhibited)
Strictly below 50 nM in IC50: Criterion met. Otherwise: Criterion not met.

{"columns": ["Compound String", "Target Under Test", "Classification"],
 "data": [
  ["CC(C)(C)c1ccc(CCN2CCc3cc(S(=O)(=O)Nc4ccc(OCCC5CCOCC5)cc4F)ccc3C2)cc1", "human MGAT2 (Homo sapiens (Human), UniProt Q3SYC2)", "Criterion not met"],
  ["CC(C)(C)c1ccc(CN2CCc3cc(S(=O)(=O)Nc4ccc(CCCC5CCCC5)cc4F)ccc3C2)cn1", "human MGAT2 (Homo sapiens (Human), UniProt Q3SYC2)", "Criterion met"],
  ["CC(C)(C)c1ccc(NC(=O)N2Cc3ccc(S(=O)(=O)Nc4ccc(OCCCOc5cccc(Cl)c5)cc4F)cc3C2)cc1", "human MGAT2 (Homo sapiens (Human), UniProt Q3SYC2)", "Criterion not met"],
  ["CC(C)(C)c1ccc(CN2CCc3cc(S(=O)(=O)Nc4ccc(OCCCC5CCCCC5)cc4F)ccc3C2)cn1", "human MGAT2 (Homo sapiens (Human), UniProt Q3SYC2)", "Criterion not met"],
  ["CC(C)(C)c1ncc(CN2CCc3cc(S(=O)(=O)Nc4ccc(CCCC5CCCC5)cc4F)ccc3C2)cn1", "human MGAT2 (Homo sapiens (Human), UniProt Q3SYC2)", "Criterion not met"],
  ["CCCCCCCc1ccc(NS(=O)(=O)c2ccc3c(c2)CCN(Cc2ccc(C(C)(C)C)nc2)C3)c(F)c1", "human MGAT2 (Homo sapiens (Human), UniProt Q3SYC2)", "Criterion met"]
]}

meta.source: patent US9035059B2
